Data provenance: patent US9862746B2

# target-or-test-system: T1, ENL (489-559) (Homo sapiens, UniProt Q03111)
# T1 construct: ENL protein (residues 489-559); MBP (pMSCG9-LIC vector); made in house; host or cells: Escherichia coli BL21 (DE3)
# T1 sequence (Q03111 489-559): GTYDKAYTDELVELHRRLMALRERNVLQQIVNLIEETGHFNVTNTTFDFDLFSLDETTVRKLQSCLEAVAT
# test-summary: SPR binding of ENL to immobilized DOT1L constructs
# study-conditions: DOT1L construct immobilized on CM5 sensor chip, read-out: ENL (489-559) Kd ± SD
// Kd lookup, one value per entry
Give the number; µM is assumed, so skip it.

See these solved cases before continuing.
molecule: DOT1L (854-1095): recombinant truncated DOT1L construct (protein) AYGSSGELITSLPISIPLSTVQPNKLPVSIPLASVVLPSRAERARSTPSPVLQPRDPSSTLEKQIGANAHGAGSRSLALAPAGFSYAGSVAISGALAGSPASLTPGAEPATLDESSSSGSLFATVGSRSSTPQHPLLLAQPRNSLPASPAHQLSSSPRLGGAAQGPLPEASKGDLPSDSGFSDPESEAKRRIVFTITTGAGSAKQSPSSKHSPLTASARGDCVPSHGQDSRRRGRRKRASAG
Kd, µM: 0.148
--
molecule: DOT1L (826-937): recombinant truncated DOT1L construct (protein) SPQDPRPLSPGALQLAGEKSSEKGLRERAYGSSGELITSLPISIPLSTVQPNKLPVSIPLASVVLPSRAERARSTPSPVLQPRDPSSTLEKQIGANAHGAGSRSLALAPAGF
Kd, µM: 0.081
--
molecule: DOT1L (826-1095): recombinant DOT1L construct (protein) SPQDPRPLSPGALQLAGEKSSEKGLRERAYGSSGELITSLPISIPLSTVQPNKLPVSIPLASVVLPSRAERARSTPSPVLQPRDPSSTLEKQIGANAHGAGSRSLALAPAGFSYAGSVAISGALAGSPASLTPGAEPATLDESSSSGSLFATVGSRSSTPQHPLLLAQPRNSLPASPAHQLSSSPRLGGAAQGPLPEASKGDLPSDSGFSDPESEAKRRIVFTITTGAGSAKQSPSSKHSPLTASARGDCVPSHGQDSRRRGRRKRASAG
Kd, µM: 0.238
--
molecule: DOT1L (854-925): recombinant truncated DOT1L construct, 72 amino acids (protein) AYGSSGELITSLPISIPLSTVQPNKLPVSIPLASVVLPSRAERARSTPSPVLQPRDPSSTLEKQIGANAHGA
Kd, µM: 0.09
--
molecule: DOT1L (925-1095): recombinant truncated DOT1L construct (protein) AGSRSLALAPAGFSYAGSVAISGALAGSPASLTPGAEPATLDESSSSGSLFATVGSRSSTPQHPLLLAQPRNSLPASPAHQLSSSPRLGGAAQGPLPEASKGDLPSDSGFSDPESEAKRRIVFTITTGAGSAKQSPSSKHSPLTASARGDCVPSHGQDSRRRGRRKRASAG
Kd, µM: 6.22

Turning now to a further molecule:
### Prompt // Kd lookup, key: DOT1L (826-958): recombinant truncated DOT1L construct (protein) SPQDPRPLSPGALQLAGEKSSEKGLRERAYGSSGELITSLPISIPLSTVQPNKLPVSIPLASVVLPSRAERARSTPSPVLQPRDPSSTLEKQIGANAHGAGSRSLALAPAGFSYAGSVAISGALAGSPASLTP
### Response 0.122
